B1: KLHL13 (parent)
chain: TGEFLKLPFERLAFVLSSNSLKHC

- Variants of: B1
- ASSAY_INFO: protein stability index of a GFP-peptide fusion (GPS, HEK-293T) (PSI 1-6); higher = more stable;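 note: lentivirally expressed fusions sorted by FACS into six bins by GFP to DsRed ratio, PSI derived from sequencing read proportions per bin multiplied by bin number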
- RUN_CONDITIONS: c terminus: a fixed tail appended
We begin with a simple list: items and their reported protein stability index.

Use these answered entries as a reference point.
{"ENTRY_SEQUENCE": "TGEELKLPFERLAFVLSSNSLKHC [F4E]", "REPORTED_MEASUREMENT": 1.42}
{"ENTRY_SEQUENCE": "TGEFLKLPFEELAFVLSSNSLKHC [R11E]", "REPORTED_MEASUREMENT": 2.48}
{"ENTRY_SEQUENCE": "TGEFLKLDFERLAFVLSSNSLKHC [P8D]", "REPORTED_MEASUREMENT": 1.58}
{"ENTRY_SEQUENCE": "TGEFLKLPFERLAFVLSSNSLRHC [K22R]", "REPORTED_MEASUREMENT": 2.48}
{"ENTRY_SEQUENCE": "TGEFLKLPFARLAFVLSSNSLKHC [E10A]", "REPORTED_MEASUREMENT": 3.65}
{"ENTRY_SEQUENCE": "TGEFLKLPFERLAFVLSSNSGKHC [L21G]", "REPORTED_MEASUREMENT": 1.75}
{"ENTRY_SEQUENCE": "TGEFLKLPFERLAFVLSSNSLDHC [K22D]", "REPORTED_MEASUREMENT": 2.77}
{"ENTRY_SEQUENCE": "TGEFLKLPFERLAFNLSSNSLKHC [V15N]", "REPORTED_MEASUREMENT": 1.95}

Lookup result for TGVFLKLPFERLAFVLSSNSLKHC [E3V] ; measured protein stability index: 2.28

Looking up TGEFLKLPFERLAFVLSFNSLKHC [S18F] , I found its protein stability index recorded as 2.48

For record TGEFLKLPFERLAFGLSSNSLKHC [V15G] the listed protein stability index is 3.31
